# assayedSystem: recombinant B-RAF enzyme (Homo sapiens (Human), UniProt P15056)
# Sequence (P15056 whole entry, species assumed): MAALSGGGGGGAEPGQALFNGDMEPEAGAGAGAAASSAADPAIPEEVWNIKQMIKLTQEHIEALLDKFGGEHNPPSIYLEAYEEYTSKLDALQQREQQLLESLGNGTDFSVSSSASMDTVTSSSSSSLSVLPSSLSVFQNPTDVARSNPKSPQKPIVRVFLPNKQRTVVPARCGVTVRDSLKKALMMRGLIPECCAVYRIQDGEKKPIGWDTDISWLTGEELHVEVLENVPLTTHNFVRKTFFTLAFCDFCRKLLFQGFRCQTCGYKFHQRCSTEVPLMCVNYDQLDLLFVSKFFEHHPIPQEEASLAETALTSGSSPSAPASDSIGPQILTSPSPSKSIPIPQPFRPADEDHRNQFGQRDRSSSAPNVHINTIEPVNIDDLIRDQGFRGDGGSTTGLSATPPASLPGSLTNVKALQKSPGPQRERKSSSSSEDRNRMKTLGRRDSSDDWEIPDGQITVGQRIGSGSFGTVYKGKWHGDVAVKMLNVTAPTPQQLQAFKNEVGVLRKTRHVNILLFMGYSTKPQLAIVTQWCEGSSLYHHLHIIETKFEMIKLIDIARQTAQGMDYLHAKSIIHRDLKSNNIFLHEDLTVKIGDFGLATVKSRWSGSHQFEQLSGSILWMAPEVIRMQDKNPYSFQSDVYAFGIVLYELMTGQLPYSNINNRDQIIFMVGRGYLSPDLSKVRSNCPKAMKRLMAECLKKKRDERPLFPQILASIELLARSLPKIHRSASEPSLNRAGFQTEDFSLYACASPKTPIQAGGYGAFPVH
# experimentalProtocol: In vitro B-RAF Kinase Assay (HTRF), IC50 determination
# experimentalSetup: 6HIS-Mek1 substrate, 60 min at 23° C.
pIC50: −log10 of the molar value.
readoutName: pIC50

// pIC50 value for O=S(=O)(CCl)Nc1ccc(F)c(Nc2ncccc2-c2ncnc3[nH]cnc23)c1F [Example 11] : > 6.30

Looking up O=S(=O)(Nc1ccc(F)c(Nc2ncccc2-c2ncnc3[nH]cnc23)c1F)C1CC1c1ccccc1 (centres unmarked) [Example 21] , I see its pIC50 listed as > 6.30

pIC50 recorded for this compound, COc1ccc(C2CC2S(=O)(=O)Nc2ccc(F)c(Nc3ncccc3-c3ncnc4[nH]cnc34)c2F)cc1 (centres unmarked) [Example 22] , is > 6.00

Per the records, this compound ( C=CS(=O)(=O)Nc1ccc(F)c(Nc2ncccc2-c2ncnc3[nH]cnc23)c1F [Example 20] ) has pIC50 equal to > 6.30

What the record says about O=S(=O)(Nc1ccc(F)c(Nc2ncccc2-c2ncnc3[nH]cnc23)c1F)c1ccc(F)cc1 [Example 23] : pIC50 is > 6.00

Documented pIC50 of O=S(=O)(Nc1ccc(F)c(Nc2ncccc2-c2ncnc3[nH]cnc23)c1F)c1ccccc1 [Example 15] : > 7.00

Sure, the documented pIC50 for CCCS(=O)(=O)Nc1ccc(F)c(Nc2ncccc2-c2ncnc3[nH]ncc23)c1F [Example 25] is > 6.30

compound O=S(=O)(CCCF)Nc1ccc(F)c(Nc2ncccc2-c2ncnc3[nH]cnc23)c1F [Example 10] , pIC50 observed: > 7.00

Notebook: CCCS(=O)(=O)Nc1ccc(F)c(Nc2ncccc2-c2ncnc3[nH]c(C)nc23)c1F [Example 3] , pIC50 read as > 6.30

In plain terms, CCCS(=O)(=O)Nc1ccc(Cl)c(Nc2ncccc2-c2ncnc3[nH]cnc23)c1F [Example 7] has a documented pIC50 of > 7.00

The recorded pIC50 for entry CCCS(=O)(=O)Nc1ccc(F)c(Nc2ncccc2-c2ncnc3[nH]cnc23)c1Cl [Example 8] equals > 7.00

Kindly note the recorded pIC50 for CCCS(=O)(=O)Nc1ccc(F)c(Nc2ncccc2-c2ncnc3[nH]ccc23)c1F [Example 26] , which is > 6.30

pIC50 reported for this compound O=S(=O)(CC(F)(F)F)Nc1ccc(F)c(Nc2ncccc2-c2ncnc3[nH]cnc23)c1F [Example 19] : > 7.00

The recorded pIC50 for entry O=S(=O)(Nc1ccc(F)c(Nc2ncccc2-c2ncnc3[nH]cnc23)c1F)c1ccc(F)c(F)c1 [Example 14] equals > 6.30

get_value(item= CS(=O)(=O)Nc1ccc(F)c(Nc2ncccc2-c2ncnc3[nH]cnc23)c1F [Example 13] , readout=pIC50) returns > 6.30

For reference, reported pIC50 for O=S(=O)(Nc1ccc(F)c(Nc2ncccc2-c2ncnc3[nH]cnc23)c1F)c1ccc(Cl)cc1 [Example 17] stands at > 6.30

Quick note, pIC50 for O=S(=O)(CCCF)Nc1ccc(Cl)c(Nc2ncccc2-c2ncnc3[nH]cnc23)c1F [Example 9] landed at > 7.00

Lab note: CCCS(=O)(=O)Nc1ccc(F)c(Nc2ccccc2-c2ncnc3[nH]cnc23)c1F [Example 28] gave pIC50 of > 6.00

So for CCCS(=O)(=O)Nc1ccc(C)c(Nc2ccccc2-c2ncnc3[nH]cnc23)c1 [Example 27] , the logged pIC50 turned out to be > 7.00

For record CCCS(=O)(=O)Nc1ccc(C)c(Nc2ncccc2-c2ncnc3[nH]cnc23)c1 [Example 6] the listed pIC50 is > 7.00

The compound listed as CCS(=O)(=O)Nc1ccc(F)c(Nc2ncccc2-c2ncnc3[nH]cnc23)c1F [Example 12] shows pIC50 equal to > 6.00

response.value for O=S(=O)(CCC(F)(F)F)Nc1ccc(F)c(Nc2ncccc2-c2ncnc3[nH]cnc23)c1F [Example 18] (field: pIC50) = > 7.00

pIC50 for CCCS(=O)(=O)Nc1ccc(F)c(Nc2ncccc2-c2ncnc3[nH]cnc23)c1F [Example 1] is > 7.00

Entry under test: O=S(=O)(Nc1ccc(F)c(Nc2ncccc2-c2ncnc3[nH]cnc23)c1F)c1ccsc1 [Example 24] . Its pIC50 was > 7.00

Lab note: CCCS(=O)(=O)Nc1ccc(Cl)c(Nc2ncccc2-c2ncnc3[nH]cnc23)c1 [Example 5] gave pIC50 of > 7.00

Looking up CCCS(=O)(=O)Nc1ccc(F)c(Nc2ncccc2-c2ncnc3[nH]cnc23)c1 [Example 4] , I found its pIC50 recorded as > 7.00
